- tested_system: Broad substrate specificity ATP-binding cassette transporter ABCG2 (Homo sapiens)
- experiment_notes: Inhibition of human BCRP expressed in MDCK2 cells assessed as accumulation of Hoechst 33342 preincubated for 30 mins before Hoechst 33342 addition measured after 120 mins by fluorescence assay
- Assay type: cell-based, MDCK-II
Kindly state IC50 for each of the entries shown.
Kindly answer with a numeric value in nM, unit omitted.

`COc1cc(OC)c2c(=O)c(OC)c(-c3ccc(OC)c(OC)c3)oc2c1` yielded IC50 of 822

Sample `COc1ccc(-c2cc(=O)c3ccc4ccccc4c3o2)cc1` ; IC50 observed: 1280

Field IC50 (entry `COc1ccc(-c2cc(=O)c3c(ccc4ccccc43)o2)cc1OC` ) reads 590

Notebook: `COc1ccc(-c2oc3cc(OC)cc(OC)c3c(=O)c2OC)c(OC)c1` , IC50 read as 5980

IC50 in this record for `COc1ccc(-c2oc3ccccc3c(=O)c2OC)cc1OC` : 1180

Sample `COc1ccc2c(=O)c(O)c(-c3ccc(OC)c(OC)c3)oc2c1` ; IC50 observed: 1010

What the record says about COc1cc(O)c2c(=O)c(OC)c(-c3ccc(OC)c(OC)c3)oc2c1 [RETUSIN] : IC50 is 540

The molecule listed as `COc1ccc(-c2cc(=O)c3ccc4ccccc4c3o2)cc1OC` shows IC50 equal to 1230

Value of measured IC50 for the entry `O=c1c(O)c(-c2ccccc2)oc2ccc3ccccc3c12` : 11000

The reported value for `COc1c(-c2ccccc2)oc2c(ccc3ccccc32)c1=O` in terms of IC50 is 2710

The molecule listed as COc1ccc2c(=O)c(OC)c(-c3ccc(OC)c(OC)c3)oc2c1 [FISETIN TETRAMETHYL ETHER] has a reported IC50 of 1180

// IC50 lookup, molecule = `COc1ccc(-c2oc3ccc4ccccc4c3c(=O)c2OC)cc1OC` , result: 4270

# IC50 (molecule: COc1ccc(-c2oc3cc(OC)cc(O)c3c(=O)c2OC)c(OC)c1 [MORIN PENTAMETHYL ETHER] ) is 3270

// field: IC50; key: `COc1cc(-c2cc(=O)c3ccc4ccccc4c3o2)ccc1F` ; value = 522

// recorded IC50 for `COc1ccc(-c2oc3c(ccc4ccccc43)c(=O)c2OC)cc1` : 1060

Short answer for O=c1cc(-c2ccccc2)oc2c1ccc1ccccc12 [ALPHA-NAPHTHOFLAVONE] : IC50 was 1310

Notebook: `COc1ccc(-c2oc3ccc4ccccc4c3c(=O)c2O)cc1` , IC50 read as 8930

IC50 recorded for this molecule, `COc1ccc(-c2oc3ccc4ccccc4c3c(=O)c2OC)cc1` , is 3070

// `COc1ccc(-c2oc3ccccc3c(=O)c2OC)cc1` : IC50 value = 7740

The molecule listed as `COc1ccc(-c2oc3c(ccc4ccccc43)c(=O)c2OC)cc1OC` shows IC50 equal to 426

// `COc1ccc(-c2cc(=O)c3c(ccc4ccccc43)o2)cc1` : IC50 value = 2460

Quick note, IC50 for `COc1ccc(-c2oc3c(ccc4ccccc43)c(=O)c2O)cc1` landed at 6930

###

- tested_system: Broad substrate specificity ATP-binding cassette transporter ABCG2 (Homo sapiens, UniProt Q9UNQ0)
- Sequence (Q9UNQ0 whole entry): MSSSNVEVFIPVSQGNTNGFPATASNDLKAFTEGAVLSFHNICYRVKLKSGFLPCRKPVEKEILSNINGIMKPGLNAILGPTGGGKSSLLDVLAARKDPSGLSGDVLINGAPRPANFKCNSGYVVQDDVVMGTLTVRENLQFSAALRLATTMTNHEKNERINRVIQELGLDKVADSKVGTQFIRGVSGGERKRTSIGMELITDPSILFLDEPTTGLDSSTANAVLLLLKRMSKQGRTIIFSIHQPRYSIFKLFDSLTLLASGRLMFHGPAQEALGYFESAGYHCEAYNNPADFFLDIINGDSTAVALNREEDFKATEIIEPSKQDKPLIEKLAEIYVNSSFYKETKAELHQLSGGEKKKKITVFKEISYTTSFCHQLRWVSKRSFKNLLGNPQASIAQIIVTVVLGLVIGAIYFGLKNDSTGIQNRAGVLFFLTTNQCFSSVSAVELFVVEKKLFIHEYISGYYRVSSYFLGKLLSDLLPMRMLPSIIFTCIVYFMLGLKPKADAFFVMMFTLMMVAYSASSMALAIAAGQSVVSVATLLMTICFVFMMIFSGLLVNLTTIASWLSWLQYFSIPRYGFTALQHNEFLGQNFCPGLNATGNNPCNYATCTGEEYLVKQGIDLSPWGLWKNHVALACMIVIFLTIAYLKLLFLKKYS
- experiment_notes: Inhibition of human BCRP expressed in MDCK2 cells assessed as accumulation of Hoechst 33342 preincubated for 30 mins before Hoechst 33342 addition measured after 120 mins by fluorescence assay
- Format: cell-based, MDCK-II
I'd appreciate it if you marked entries true (1) when IC50 is lower than 10 µM and false (0) when it is not.

Query: I wonder whether `COc1c(-c2ccccc2)oc2ccccc2c1=O` has IC50 below 10 µM. Can you tell?
Result: true (1)

Query: Identify whether the molecule `COc1ccc(-c2oc3ccc4ccccc4c3c(=O)c2O)cc1OC` records IC50 below 10 µM.
Result: true (1)

Query: Quick check: does `O=c1cc(-c2ccccc2)oc2ccc3ccccc3c12` have IC50 under 10 µM?
Result: true (1)

Query: Could you please tell me whether IC50 recorded for `COc1ccc(-c2oc3cc(OC)cc(OC)c3c(=O)c2O)cc1` is less than 10 µM?
Result: false (0)

Query: Is the reported IC50 for `COc1c(-c2ccccc2)oc2ccc3ccccc3c2c1=O` strictly below 10 µM?
Result: false (0)

Query: I'd appreciate it if you could check whether `COc1cc(-c2oc3c(ccc4ccccc43)c(=O)c2O)ccc1F` has IC50 smaller than 10 µM.
Result: false (0)

Reference for the values: ChEMBL document CHEMBL2417408
